# Test system: HepG2
# EXPERIMENTAL PROTOCOL: Anticancer activity against human HepG2 cells incubated for 24 hrs by MTT assay
# Format: functional, cell-based
# STUDY CONDITIONS: HepG2, 24 h
ENDPOINT LABEL: IC50 (µM)

C#CCN1C(=O)CN(/N=C/c2ccc([N+](=O)[O-])o2)C1=O    117

====

# EXPERIMENTAL PROTOCOL: Cytotoxicity in human WI-38 cells assessed as safe dose incubated for 72 hrs by MTT assay
# Type: toxicity, cell-based
# STUDY CONDITIONS: read-out: EC100
Strictly below 100 nM in MNTC at 72 h: rule met. Otherwise: rule not met.

O=C(CN1C(=O)CN(/N=C/c2ccc([N+](=O)[O-])o2)C1=O)c1ccccc1    rule met
C#CCN1C(=O)CN(/N=C/c2ccc([N+](=O)[O-])o2)C1=O    rule not met
O=C1CN(/N=C/c2ccc([N+](=O)[O-])o2)C(=O)N1Cc1cn(-c2ccccc2)nn1    rule met
